molecular target: MAP kinase-interacting serine/threonine-protein kinase 1 (Homo sapiens) (UniProt Q9BUB5); conditions: at 0.1 µM
Sequence (Q9BUB5 whole entry, looked up): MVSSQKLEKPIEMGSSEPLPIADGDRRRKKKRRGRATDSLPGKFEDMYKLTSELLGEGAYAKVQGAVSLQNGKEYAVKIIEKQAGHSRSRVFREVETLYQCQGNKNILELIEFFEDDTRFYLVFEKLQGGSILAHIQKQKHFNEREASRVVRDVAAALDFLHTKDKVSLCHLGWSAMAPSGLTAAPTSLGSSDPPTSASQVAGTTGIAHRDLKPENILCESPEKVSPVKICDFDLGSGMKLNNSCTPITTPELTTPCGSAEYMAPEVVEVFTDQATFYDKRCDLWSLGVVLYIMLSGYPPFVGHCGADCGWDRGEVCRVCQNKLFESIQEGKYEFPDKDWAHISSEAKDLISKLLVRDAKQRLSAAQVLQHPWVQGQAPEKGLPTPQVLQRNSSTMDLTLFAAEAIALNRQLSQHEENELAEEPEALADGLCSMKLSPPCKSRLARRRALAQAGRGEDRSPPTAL
Description: GSK_PKIS: MKNK1 mean inhibition at 0.1 uM [Nanosyn]
Provide the reported inhibition of each item.
Please answer in the form of a number followed by its unit of measurement.

Consider the worked cases shown below.
molecule smiles: COc1cccc(-c2c[nH]c3c(N/N=C/c4ccncc4)ncnc23)c1
inhibition: 15.4%
--
molecule smiles: COc1cc2c(cc1Nc1nc(Nc3ccsc3C(N)=O)c3cc[nH]c3n1)N(C(=O)CN(C)C)CCC2(C)C
inhibition: 3.09%
--
molecule smiles: CNC(=O)c1cc(-c2ccc(F)cc2)cc(-c2ccc(S(=O)(=O)N3CCCC3)cc2)c1N
inhibition: 0.63%

// input: 7 compounds below; output: inhibition for each
1. CCCN(CCS(C)(=O)=O)Cc1ccc(-c2ccc3ncnc(Nc4ccc(OCc5cccc(F)c5)c(Cl)c4)c3c2)o1
2. O=C(O[C@H]1CN[C@H](C#Cc2cc3ncnc(Nc4ccc(Cc5ccccc5)cc4)c3s2)C1)N1CCOCC1
3. CC(=O)Nc1cccc(C#Cc2cncnc2Nc2ccc(OCc3cccc(F)c3)c(Cl)c2)c1
4. CC(C)COC(=O)c1ccc2c(c1)/C(=C/Nc1ccc(S(N)(=O)=O)cc1)C(=O)N2
5. COc1ccc(-c2cc(-c3c[nH]nc3-c3ccccn3)ccn2)cc1
6. CC(C)(CO)CNC(=O)c1ccc2c(c1)/C(=N/Nc1ccc(S(N)(=O)=O)cc1)C(=O)N2
7. NC(=O)c1sc(-n2cnc3ccc(C(F)(F)F)cc32)cc1OCc1ccccc1Br

Output line:
["3.79%", "2.67%", "2.02%", "-1.01%", "3.19%", "0.85%", "2.89%"]

---

Record form. Attribute: inhibition. Fill in for each entry.
molecular target: Cytoplasmic tyrosine-protein kinase BMX (Homo sapiens) (UniProt P51813); details: at 0.1 µM
Sequence (P51813 whole entry): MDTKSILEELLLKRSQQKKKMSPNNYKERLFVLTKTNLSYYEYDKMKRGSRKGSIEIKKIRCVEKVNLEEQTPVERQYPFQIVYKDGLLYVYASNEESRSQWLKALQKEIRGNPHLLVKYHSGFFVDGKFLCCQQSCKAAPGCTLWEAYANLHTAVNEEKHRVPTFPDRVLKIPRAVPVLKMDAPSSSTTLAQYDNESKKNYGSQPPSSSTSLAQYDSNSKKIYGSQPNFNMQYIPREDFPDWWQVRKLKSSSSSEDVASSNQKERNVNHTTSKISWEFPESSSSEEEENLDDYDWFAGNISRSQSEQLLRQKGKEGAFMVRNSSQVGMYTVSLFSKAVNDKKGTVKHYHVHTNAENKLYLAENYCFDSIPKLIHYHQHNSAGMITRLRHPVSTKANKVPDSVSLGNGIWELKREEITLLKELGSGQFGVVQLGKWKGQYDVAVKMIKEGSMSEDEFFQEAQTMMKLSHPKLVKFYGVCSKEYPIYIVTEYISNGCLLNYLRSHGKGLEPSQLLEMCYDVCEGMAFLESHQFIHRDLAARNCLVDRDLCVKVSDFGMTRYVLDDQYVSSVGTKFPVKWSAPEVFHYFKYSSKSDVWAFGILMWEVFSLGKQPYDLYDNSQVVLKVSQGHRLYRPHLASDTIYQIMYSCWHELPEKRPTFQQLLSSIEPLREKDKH
Description: GSK_PKIS: BMX mean inhibition at 0.1 uM [Nanosyn]
Give your result as the value with the unit written after it.

molecule smiles: c1cc(-c2cnn3nc(N4CCOCC4)ccc23)nc(NC2CC2)n1
inhibition: 0.89%
//
molecule smiles: CCn1c(-c2nonc2N)nc2ccccc21
inhibition: -0.5%
//
molecule smiles: NS(=O)(=O)c1ccc(N/N=C2\C(=O)Nc3ccc4ncccc4c32)cc1
inhibition: 6.88%

// each molecule listed below needs its inhibition
1. N#Cc1c(NC(=O)CN2CCOCC2)sc2c1CCCC2
2. Fc1ccc(-c2nn3ncccc3c2-c2ccnc(Nc3ccc4c(c3)OCCO4)n2)cc1
3. CNC(=O)c1cc(-c2ccc(F)cc2)cc(-c2ccc(S(=O)(=O)N3CCCC3)cc2)c1N
4. CC(=O)Nc1cccc(C#Cc2cncnc2Nc2ccc(OCc3cccc(F)c3)c(Cl)c2)c1

Output line:
1: -0.4%; 2: 15%; 3: 2.06%; 4: 0.73%

Give inhibition for each listed item.
1. CNC(=O)c1cncc(/C=C/c2ccccc2Cl)c1
2. CCCN(CCS(C)(=O)=O)Cc1ccc(-c2ccc3ncnc(Nc4ccc(OCc5cccc(F)c5)c(Cl)c4)c3c2)o1
3. CC(C)COC(=O)c1ccc2c(c1)/C(=C/Nc1ccc(S(N)(=O)=O)cc1)C(=O)N2

Output line:
1.47%
0.94%
0.73%

---

target: Vascular endothelial growth factor receptor 1 (Homo sapiens); details: at 0.1 µM;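 also: values are mean percent inhibition of FLT1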
property: inhibition

Here is how some compounds turned out for inhibition.
molecule smiles: Fc1ccc(-c2nn3ncccc3c2-c2ccnc(Nc3ccc4c(c3)OCCO4)n2)cc1
property: inhibition
observed value: 7.67%

molecule smiles: COc1cc2ncn(-c3cc(OCc4ccccc4C(F)(F)F)c(C(=O)N(C)C)s3)c2cc1OC
property: inhibition
observed value: -0.21%

molecule smiles: CNC(=O)c1cc(-c2ccc(F)cc2)cc(-c2ccc(S(=O)(=O)N3CCCC3)cc2)c1N
property: inhibition
observed value: 2.17%

molecule smiles: Fc1cccc(COc2ccc(Nc3ncnc4sc(-c5ccco5)cc34)cc2Cl)c1
property: inhibition
observed value: 2.39%

molecule smiles: Nc1nc(-c2cccc(Cl)c2)c(-c2ccc3ncccc3n2)s1
property: inhibition
observed value: 0.88%

Take each entry in turn and give its inhibition.
1. COc1cc(N2CCN(C(C)C)CC2)ccc1Nc1nc(Nc2ccc(F)cc2C(N)=O)c2cc[nH]c2n1
2. O=C(O[C@H]1CN[C@H](C#Cc2cc3ncnc(Nc4ccc(Cc5ccccc5)cc4)c3s2)C1)N1CCOCC1
3. CCn1c(-c2nonc2N)nc2ccccc21
4. CN(C)CCOc1ccc(-c2nc(-c3ccncc3)c(-c3ccc4c(c3)CC/C4=N\O)[nH]2)cc1

Output line:
["-0.84%", "-0.12%", "2.69%", "2.37%"]
